Tested on: RAW-Dual (murine macrophage reporter line)
Assay: IRF reporter (Lucia luciferase) activity fold change vs agonist alone; higher = enhanced IRF activity
Details: modulator concentration 10 µM; agonist: MPLA […]
Give Y when the value for IRF reporter is at least 1. Give N when it is less.

> print(dat)
                                    molecule  category.label
 1  O=C1CSC(=S)N1N=Cc1ccc(O)c([N+](=O)[O-])c1               Y
 2  COC(=O)C1=CN(CC2CCCO2)C=C(C(=O)OC)C1c1ccsc1 (centres undefined)               Y
 3  Cc1ccc2c(c1)C1(c3ccccc3)Nc3ccc(C)cc3C1(c1ccccc1)N2 (centres undefined)               N
 4                 O=S(=O)(c1ccccc1)N1CCOCC1               Y
 5  COCCNc1nc(SCC(=O)Nc2cccc(C(F)(F)F)c2)nc2ccccc12               Y
 6  Cc1ccc(O)c([C@H](CCN(C(C)C)C(C)C)c2ccccc2)c1.O=C(O)[C@H](O)[C@@H](O)C(=O)O               N
 7  COc1ccc(S(=O)(=O)NCCn2nc(C(F)(F)F)cc2C2CC2)cc1               N
 8  CC1=C(C(=O)OCCN(Cc2ccccc2)c2ccccc2)C(c2cccc([N+](=O)[O-])c2)C(P2(=O)OCC(C)(C)CO2)=C(C)N1 (centres undefined)               N
 9   N#CC(=Cc1c(F)cccc1Cl)C(=O)Nc1ccc(Cl)cc1               Y
10  CN1C(=O)C(=NNC(=O)COc2cccc(Br)c2)c2ccccc21               Y
11  CCCCCCOc1ccc(N2C(=O)CC(SC(=Nc3ccccc3)Nc3ccccc3)C2=O)cc1 (centres undefined)               Y
12  O=[N+]([O-])c1ccc(-n2cccc2C=NNc2nc(N3CCCCC3)nc(N3CCCCC3)n2)cc1               Y
13  CCOC(=O)c1ccc(N2C(=O)CC(N3CCN(c4ccc([N+](=O)[O-])cc4)CC3)C2=O)cc1 (centres undefined)               Y
14  COc1cc(C=C(C#N)c2nc3ccccc3[nH]2)cc(Cl)c1O               Y
15  O=C(Nc1cc(C(F)(F)F)cc(C(F)(F)F)c1)c1ccco1               N
16  COC(=O)C1=CN(CC2CCCO2)C=C(C(=O)OC)C1c1ccc(Cl)cc1 (centres undefined)               Y
17     O=C(Nc1nc2ccccc2n1CCN1CCOCC1)C1CCCCC1               Y
18  CC(=O)N1CCC(C(=O)NC(Cn2nccn2)c2ccccc2)CC1 (centres undefined)               Y
19  Cc1cc(C(O)CNC(=O)c2ccc(C(F)(F)F)nc2)c(C)o1 (centres undefined)               Y
20  COc1ccccc1N1CCN(CC(O)COc2cccc3ccccc23)CC1.Cl.Cl (centres undefined)               Y
21              O=[N+]([O-])c1ccc2nc(S)sc2c1               Y
22  CC(=O)N1CCc2ccc(NC(=O)C3(c4ccccc4)CCOCC3)cc2C1               Y
23    CCN(C=Nc1sc2c(c1C#N)CC(C)(C)NC2(C)C)CC               Y
24     Cc1ccc(O)c(N=Nc2ccc(S(=O)(=O)O)cc2)c1               Y
25                               Oc1nc[nH]n1               N
26  CN1CC[C@H](c2c(O)cc(O)c3c(=O)cc(-c4ccccc4Cl)oc23)[C@H](O)C1               N
27  Cc1cccc(C)c1OCC(=O)N[C@@H](Cc1ccccc1)[C@@H](O)C[C@H](Cc1ccccc1)NC(=O)[C@H](C(C)C)N1CCCNC1=O               Y
28  CN1C(C(=O)Nc2ccccn2)=C(O)c2ccccc2S1(=O)=O               Y
29  CC(C)Oc1ccc(C(=O)NC2CCN(c3ncnc4c3CCCC4)CC2)cn1               Y
30  Cc1ccc(C(CNC(=O)Cc2cccc3ccccc23)N(C)C)cc1 (centres undefined)               Y
31  CCCS(=O)c1ccc2nc(NC(=O)OC)[nH]c2c1 (centres undefined)               N
